Record form. Attribute: fold stronger binding to CLDN18.2 than to CLDN18.1. Fill in for each entry.
assay target: T1, human Claudin 18.2 protein (human)
T1 construct: Expressed on transfected cells (CHO-hCLDN18.2, HEK293-hCLDN18.2, 3T3-hCLDN18.2) from pCMV3-hCLDN18.2; also called human CLDN18.2; hCLDN18.2
T1 sequence (chain, as listed by the source limits assumed): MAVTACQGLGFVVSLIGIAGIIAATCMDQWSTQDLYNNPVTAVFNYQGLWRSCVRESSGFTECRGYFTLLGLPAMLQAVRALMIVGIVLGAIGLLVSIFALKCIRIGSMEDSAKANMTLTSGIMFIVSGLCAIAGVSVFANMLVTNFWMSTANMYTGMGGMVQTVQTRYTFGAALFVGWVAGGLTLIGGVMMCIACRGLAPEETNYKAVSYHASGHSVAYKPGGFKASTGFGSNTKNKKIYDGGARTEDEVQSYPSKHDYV
assay: FACS on cells expressing CLDN18.2 versus cells expressing CLDN18.1 (reference: binding to CLDN18.1)

[[record]]
binder = "32G4 mouse chimeric antibody (murine VH/VL on human IgG1 constant regions) (antibody, V domains shown, also called murine clone 32G4; mouse 32G4 chimeric control antibody) VH: EVQLQQSGPELENPGASVKIFCKASGYSSTGYNINWVKQSSGKSLEWIGNINPYYGGITYNQKFKGKATLTVDKSSSTAYVQLKSLTSEDSAVYYCARDYYGNSFAYWGQGTLVTVST VL: DIVMTQSPSSLTVTAGEKVTMSCKSSQSLLNSGNQKNYLTWYQQNPGQPPKLLIFWASTRESGVPDRFTGSGSGTDFTLTISSVQAEDLAVYYCQNNYYFPYTFGGGTKLEIR"
experimental_result = "≥ 1000 times"


Lab note: next binder to report on.
The binder identified as 31A6 mouse chimeric antibody (murine VH/VL on human IgG1 constant regions) (antibody, V domains shown, also called murine clone 31A6) VH: QTYLQQSGAELVRSGASVKMSCKASGYTFASYNIHWVKQTPGQGLEWIGYIYPGKDGSHYNQKFRDKATLTADTSSSTAYMQISSLTSEDSAVYFCARGGYYGNSFDYWGQGTLVTVSA VL: DIVMSQSPSSLTVTTGEKVTMTCKSSQSLLNSGNLKNYLAWYQQKPGQPPKLLIYWASIRESGVPDRFTGSGSGTDFTLTIISVQAEDLAIYYCQNAYTFPFTLGGGTKLEIK registered its fold stronger binding to CLDN18.2 than to CLDN18.1 at ≥ 1000 times
